test system: soluble epoxide hydrolase (sEH); assay: Fluorescent Assay for Mouse and Human Soluble Epoxide Hydrolase (CMNPC substrate); format: biochemical; details: Concentration 50000 nM
Measurement type: % Inhibition (%)

• CCCC(=O)N1CCC(NC(=O)C(=O)C2CCCCC2)CC1 = 62
• O=C(Nc1cccc(OCc2ccccc2)c1)C(=O)C1CCCCC1 = 99
• O=C(NC12CC3CC(CC(C3)C1)C2)C(=O)c1cccc(OCc2ccccc2)c1 = 96
• CCCC(=O)N1CCC(NC(=O)C(O)c2ccc(C(F)(F)F)cc2)CC1 (stereo not shown) = 74
• O=C(NCCN1CCOCC1)c1ccc(NC(=O)C(O)c2ccc(C(F)(F)F)cc2)cc1 (stereo not shown) = 63
• O=C(Nc1ccc(OCc2ccccc2)cc1)C(O)CC12CC3CC(CC(C3)C1)C2 (stereo not shown) = 81
• Cc1ccc(S(=O)(=O)N2CCC(NC(=O)C(O)Cc3ccc(C(F)(F)F)cc3)CC2)cc1 (stereo not shown) = 84
• O=C(Nc1ccc(-n2ccnc2)cc1)C(O)C1CCCCC1 (stereo not shown) = 80
• O=C(Nc1ccc(-n2ccnc2)cc1)C(O)C12CC3CC(CC(C3)C1)C2 (stereo not shown) = 98
• O=C(Nc1ccc(C(=O)NCCN2CCOCC2)cc1)C(=O)c1ccc(C(F)(F)F)cc1 = 82

---

tested on: soluble epoxide hydrolase (sEH); assay: Fluorescent Assay for Mouse and Human Soluble Epoxide Hydrolase (CMNPC substrate); type: biochemical; settings: Concentration 5000 nM
Measurement type: % Inhibition (%)

Sample records with % Inhibition:
* O=C(Nc1ccc(OCc2ccccc2)cc1)C(O)C12CC3CC(CC(C3)C1)C2 (centres unmarked) | 95
* CNS(=O)(=O)c1ccc(CCNC(=O)C(O)CCC23CC4CC(CC(C4)C2)C3)cc1 (centres unmarked) | 79
* O=C(Nc1ccc(-n2ccnc2)cc1)C(=O)C12CC3CC(CC(C3)C1)C2 | 93
* O=C(Nc1ccc(OCc2ccccc2)cc1)C(O)CCc1ccc(C(F)(F)F)cc1 (centres unmarked) | 89
* O=C(CC12CC3CC(CC(C3)C1)C2)C(=O)Nc1ccc(OCc2ccccc2)cc1 | 64

[1] O=C(Nc1cccc(OCc2ccccc2)c1)C(=O)C12CC3CC(CC(C3)C1)C2
[2] O=C(O)CCCCCCCCCCCNC(=O)C(O)Cc1ccc(C(F)(F)F)cc1 (centres unmarked)
## Input Record comparison, field % Inhibition: mark the lower of 1 and 2 . Use the label to indicate which entry you chose.
## Output 2

---

test system: soluble epoxide hydrolase (sEH); experiment: Fluorescent Assay for Mouse and Human Soluble Epoxide Hydrolase (CMNPC substrate); format: biochemical; settings: Concentration 50000 nM
Measurement type: % Inhibition (%)

- COC1CCC(NC(=O)C(=O)c2ccc(C(F)(F)F)cc2)CC1 (stereo not drawn) [Compound 4]: 87
- Cc1ccc(S(=O)(=O)N2CCC(NC(=O)C(=O)c3ccc(C(F)(F)F)cc3)CC2)cc1 [Compound 9]: 72
- O=C(Nc1ccc(-n2ccnc2)cc1)C(=O)C1CCCCC1 [Compound 11]: 80
- O=C(Nc1ccc(OCc2ccccc2)cc1)C(O)CC1CCCCC1 (stereo not drawn) [Compound 132]: 65
- Cc1ccc(S(=O)(=O)N2CCC(NC(=O)C(O)c3ccc(C(F)(F)F)cc3)CC2)cc1 (stereo not drawn) [Compound 108]: 80
- O=C(CCc1ccc(C(F)(F)F)cc1)C(=O)Nc1ccc(OCc2ccccc2)cc1 [Compound 23]: 93
- CCCC(=O)N1CCC(NC(=O)C(=O)c2ccc(C(F)(F)F)cc2)CC1 [Compound 14]: 77
- COC1CCC(NC(=O)C(O)c2ccc(C(F)(F)F)cc2)CC1 (stereo not drawn) [Compound 104]: 79
- O=C(NCCc1ccc(OCc2ccccc2)cc1)C(O)Cc1ccc(C(F)(F)F)cc1 (stereo not drawn) [Compound 144]: 66

---

test system: soluble epoxide hydrolase (sEH); test: Fluorescent Assay for Mouse and Human Soluble Epoxide Hydrolase (CMNPC substrate); assay type: biochemical; conditions: Concentration 5000 nM
Measurement type: % Inhibition (%)

- O=C(Cc1ccc(OCc2ccccc2)cc1)C(=O)NC12CC3CC(CC(C3)C1)C2 [Compound 7]: 75
- O=C(O)CCCCCCCCCCCNC(=O)C(O)CC12CC3CC(CC(C3)C1)C2 (stereo not shown) [Compound 161]: 90
- O=C(O)c1ccc(Oc2ccc(CCNC(=O)C(O)CCC34CC5CC(CC(C5)C3)C4)cc2)cc1 (stereo not shown) [Compound 154]: 81
- O=C(NCCc1ccc(OCc2ccccc2)cc1)C(O)CCC1CCCCC1 (stereo not shown) [Compound 141]: 91
- O=C(NCCc1ccc(Oc2ccccc2)cc1)C(O)CCC12CC3CC(CC(C3)C1)C2 (stereo not shown) [Compound 151]: 90
- O=C(NCCc1ccc(OCc2ccccc2)cc1)C(O)CC12CC3CC(CC(C3)C1)C2 (stereo not shown) [Compound 147]: 93
- O=C(O)CCCCCCCCCCCNC(=O)C(O)CCC12CC3CC(CC(C3)C1)C2 (stereo not shown) [Compound 165]: 86
- O=C(CC12CC3CC(CC(C3)C1)C2)C(=O)Nc1cccc(OCc2ccccc2)c1 [Compound 15]: 86
- O=C(Nc1cccc(OCc2ccccc2)c1)C(O)C1CCCCC1 (stereo not shown) [Compound 113]: 66
- Cc1ccc(S(=O)(=O)N2CCC(NC(=O)C(=O)CC34CC5CC(CC(C5)C3)C4)CC2)cc1 [Compound 19]: 99
- O=C(Nc1cccc(OCc2ccccc2)c1)C(O)CCc1ccc(C(F)(F)F)cc1 (stereo not shown) [Compound 131]: 98
- O=C(Nc1ccc(OCc2ccccc2)cc1)C(O)CCC12CC3CC(CC(C3)C1)C2 (stereo not shown) [Compound 143]: 99
- COc1ccc(C(O)C(=O)NCC23CC4CC(CC(C4)C2)C3)cc1 (stereo not shown) [Compound 120]: 79
- O=C(O)CCCCCCCCCCCNC(=O)C(O)c1ccc(C(F)(F)F)cc1 (stereo not shown) [Compound 159]: 86
- O=C(NCc1ccc(OCc2ccccc2)cc1)C(O)CC12CC3CC(CC(C3)C1)C2 (stereo not shown) [Compound 125]: 98
- O=C(Nc1cccc(OCc2ccccc2)c1)C(O)CC1CCCCC1 (stereo not shown) [Compound 126]: 78
- Cc1ccc(S(=O)(=O)N2CCC(NC(=O)C(O)CC3CCCCC3)CC2)cc1 (stereo not shown) [Compound 135]: 89
- Cc1ccc(S(=O)(=O)N2CCC(NC(=O)C(O)CCc3ccc(C(F)(F)F)cc3)CC2)cc1 (stereo not shown) [Compound 136]: 83
- O=C(Nc1cccc(OCCCN2CCOCC2)c1)C(O)c1ccc(C(F)(F)F)cc1 (stereo not shown) [Compound 101]: 95
- O=C(NC1CCN(S(=O)(=O)c2ccc(Cl)cc2)CC1)C(O)CC12CC3CC(CC(C3)C1)C2 (stereo not shown) [Compound 148]: 76
- Cc1ccc(S(=O)(=O)N2CCC(NC(=O)C(=O)C34CC5CC(CC(C5)C3)C4)CC2)cc1 [Compound 18]: 93
- O=C(NCCc1ccc(OCc2ccccc2)cc1)C(O)CCc1ccc(C(F)(F)F)cc1 (stereo not shown) [Compound 139]: 70
- O=C(Nc1cccc(OCc2ccccc2)c1)C(=O)c1ccc(C(F)(F)F)cc1 [Compound 5]: 71
- O=C(Nc1ccc(OCc2ccccc2)cc1)C(=O)C12CC3CC(CC(C3)C1)C2 [Compound 20]: 93
- O=C(NCC12CC3CC(CC(C3)C1)C2)C(O)c1ccc(C(F)(F)F)cc1 (stereo not shown) [Compound 121]: 91

---

test system: soluble epoxide hydrolase (sEH); assay: Fluorescent Assay for Mouse and Human Soluble Epoxide Hydrolase (CMNPC substrate); type: biochemical; settings: Concentration 5000 nM
Measurement type: % Inhibition (%)

- O=C(NC12CC3CC(CC(C3)C1)C2)C(O)c1cccc(OCc2ccccc2)c1 (centres unmarked): 87
- O=C(Nc1ccc(-n2ccnc2)cc1)C(=O)c1ccc(C(F)(F)F)cc1: 85
- O=C(NCc1ccc(OCc2ccccc2)cc1)C(O)CCC12CC3CC(CC(C3)C1)C2 (centres unmarked): 73
- CCCC(=O)N1CCC(NC(=O)C(O)C2CCCCC2)CC1 (centres unmarked): 81
- Cc1ccc(S(=O)(=O)N2CCC(CNC(=O)C(O)C34CC5CC(CC(C5)C3)C4)CC2)cc1 (centres unmarked): 84
- Cc1ccc(S(=O)(=O)N2CCC(NC(=O)C(=O)C3CCCCC3)CC2)cc1: 70
- O=C(NC12CC3CC(CC(C3)C1)C2)C(O)Cc1ccc(OCc2ccccc2)cc1 (centres unmarked): 91
- O=C(NCCc1ccc(F)cc1)C(O)CCC12CC3CC(CC(C3)C1)C2 (centres unmarked): 95

---

Test system: soluble epoxide hydrolase (sEH)
Assay: Fluorescent Assay for Mouse and Human Soluble Epoxide Hydrolase (CMNPC substrate)
Type: biochemical
Conditions: Concentration 500 nM
Method: Fluorescent Assay for Mouse and Human Soluble Epoxide Hydrolase Recombinant mouse sEH (MsEH) and human sEH (HsEH) were produced in a baculovirus expression system as previously reported. […] Protein concentration was quantified using the Pierce BCA assay using bovine serum albumin as the calibrating standard. […] The assay was also evaluated with similar results in crude cell lysates or homogenate of tissues. […] Incubate the plate for 5 minutes in the plate reader at 30° C. […]
Measurement type: % Inhibition (%)

• Cc1ccc(S(=O)(=O)N2CCC(NC(=O)C(O)CCC3CCCCC3)CC2)cc1 (centres unmarked) [Compound 140] = 78
• O=C(NC1CCN(S(=O)(=O)c2cccc(C(F)(F)F)c2)CC1)C(O)CC12CC3CC(CC(C3)C1)C2 (centres unmarked) [Compound 133] = 83
• Cc1ccc(S(=O)(=O)N2CCC(NC(=O)C(O)CCC34CC5CC(CC(C5)C3)C4)CC2)cc1 (centres unmarked) [Compound 138] = 79
• O=C(Nc1cccc(OCc2ccccc2)c1)C(O)CC12CC3CC(CC(C3)C1)C2 (centres unmarked) [Compound 115] = 89
• Cc1ccc(S(=O)(=O)N2CCC(NC(=O)C(O)CC34CC5CC(CC(C5)C3)C4)CC2)cc1 (centres unmarked) [Compound 128] = 89
• COC(=O)CCCCCCCCCCCNC(=O)C(O)CCc1ccc(C(F)(F)F)cc1 (centres unmarked) [Compound 162] = 78
• O=C(Nc1cccc(OCCCN2CCOCC2)c1)C(=O)c1ccc(C(F)(F)F)cc1 [Compound 1] = 65
• Cc1ccc(S(=O)(=O)N2CCC(CNC(=O)C(O)CC34CC5CC(CC(C5)C3)C4)CC2)cc1 (centres unmarked) [Compound 122] = 88
